Origin of measurements: patent US7445765B2

Assay: Biodistribution of the 99mTc(N) heterocomplexes in rats (organ uptake, heart accumulation, heart/lung and heart/liver ratios)
Type: in vivo, female Sprague-Dawley rats
Conditions: rats, 20 min
recorded.metric: Heart/liver ratio in biodistribution

[[record]]
compound = "CCOCCN1CC[P](CCCOC)(CCCOC)[99Tc+]2(#[N])([S]C(N(CCOCC)C(C)C)=[S]2)[P](CCCOC)(CCCOC)CC1 [[^99mTc(N) (PNP5) (ISOET)^+]]"
recorded_metric = "Heart/liver ratio in biodistribution"
observed_value = 2.62

[[record]]
compound = "CCOCCC[P]1(CCCOCC)CCN(CCOCC)CC[P](CCCOCC)(CCCOCC)[99Tc+]12(#[N])[S]C(N(CCOCC)CCOCC)=[S]2 [[^99mTc(N) (PNP6) (DBODC)^+]]"
recorded_metric = "Heart/liver ratio in biodistribution"
observed_value = 0.18

[[record]]
compound = "CCOCCN1CC[P](CCCOC)(CCCOC)[99Tc+]2(#[N])([S]C(N(CCOCC)CCOCC)=[S]2)[P](CCCOC)(CCCOC)CC1 [[^99mTc(N) (PNP5) (DBODC)^+]]"
recorded_metric = "Heart/liver ratio in biodistribution"
observed_value = 3.78

[[record]]
compound = "COCCC[P]1(CCCOC)CCN(CCOC)CC[P](CCCOC)(CCCOC)[99Tc+]12(#[N])[S]C(N(CCOC)CCOC)=[S]2 [[^99m−Tc(N) (PNP3) (DPODC)^+]]"
recorded_metric = "Heart/liver ratio in biodistribution"
observed_value = 1.34

[[record]]
compound = "CCOCCN(CCOCC)C1=[S][99Tc+]2(#[N])([S]1)[P](CCCOC)(CCCOC)CCN(CCOC)CC[P]2(CCCOC)CCCOC [[^99m−Tc(N) (PNP3) (DBODC)^+]]"
recorded_metric = "Heart/liver ratio in biodistribution"
observed_value = 3.82


====

Experiment: Biodistribution of the 99mTc(N) heterocomplexes in rats (organ uptake, heart accumulation, heart/lung and heart/liver ratios)
Type: in vivo, female Sprague-Dawley rats
Details: 2 min post injection
recorded.metric: Biodistribution in rats: Heart (% ID/g)

[[record]]
compound = "COCCC[P]1(CCCOC)CCN(CCOC)CC[P](CCCOC)(CCCOC)[99Tc+]12(#[N])[S]C(N(CCOC)CCOC)=[S]2 [[^99mTc(N) (PNP3) (DPODC)]^+]"
recorded_metric = "Biodistribution in rats: Heart"
u = "% ID/g"
observed_value = 2.06

[[record]]
compound = "CCOCCN(CCOCC)C1=[S][99Tc+]2(#[N])([S]1)[P](CCCOC)(CCCOC)CCN(CCOC)CC[P]2(CCCOC)CCCOC [[^99mTc(N) (PNP3) (DBODC)]^+]"
recorded_metric = "Biodistribution in rats: Heart"
u = "% ID/g"
observed_value = 3.42


====

Recorded measurements of Biodistribution in rats: Liver, one per entry
Experiment: Biodistribution of the 99mTc(N) heterocomplexes in rats (organ uptake, heart accumulation, heart/lung and heart/liver ratios)
Assay type: in vivo, female Sprague-Dawley rats
Conditions: 30 min post injection
Description: The biodistribution was measured by using female Sprague-Dawley rats (SD rats) weighing 200 g to 250 g. Each of the ^99mTc(N) heterocomplexes purified in the manner described above was diluted with phosphate buffer (0.1 M, pH=7.4) to obtain a final solution having an ethanol content of 10%. […] The blood was withdrawn from the heart through a syringe and counted. […] The organs were excised from the rats, washed with physiological saline, weighed, and counted in a NaI well counter. […]
recorded.metric: Biodistribution in rats: Liver (% dose/g)

[[record]]
molecule = "CCOCCN1CC[P](CCCOC)(CCCOC)[99Tc+]2(#[N])([S]C(N(CCOCC)CCOCC)=[S]2)[P](CCCOC)(CCCOC)CC1 [[^99mTc(N) (PNP5) (DBODC)]^+]"
observed_value = 0.72

[[record]]
molecule = "CCOCCN1CC[P](CCCOC)(CCCOC)[99Tc+]2(#[N])([S]C(N(CCOCC)C(C)C)=[S]2)[P](CCCOC)(CCCOC)CC1 [[^99mTc(N) (PNP5) (ISOET)]^+]"
observed_value = 1.06


====

Assay: Biodistribution of the 99mTc(N) heterocomplexes in rats (organ uptake, heart accumulation, heart/lung and heart/liver ratios)
Type: in vivo, female Sprague-Dawley rats
Details: rats, 10 min
Known Heart accumulation of a selection of compounds
recorded.metric: Heart accumulation (% ID/g)

[[record]]
compound = "CCOCCN(CCOCC)C1=[S][99Tc+]2(#[N])([S]1)[P](CCCOC)(CCCOC)CCN(CCOC)CC[P]2(CCCOC)CCCOC [[^99m−Tc(N) (PNP3) (DBODC)^+]]"
observed_value = 3.65

[[record]]
compound = "CCOCCC[P]1(CCCOCC)CCN(CCOCC)CC[P](CCCOCC)(CCCOCC)[99Tc+]12(#[N])[S]C(N(CCOCC)CCOCC)=[S]2 [[^99m−Tc(N) (PNP6) (DBODC)^+]]"
observed_value = 1.39

[[record]]
compound = "COCCC[P]1(CCCOC)CCN(CCOC)CC[P](CCCOC)(CCCOC)[99Tc+]12(#[N])[S]C(N(CCOC)CCOC)=[S]2 [[^99m−Tc(N) (PNP3) (DPODC)^+]]"
observed_value = 2.37

[[record]]
compound = "CCOCCN1CC[P](CCCOC)(CCCOC)[99Tc+]2(#[N])([S]C(N(CCOCC)C(C)C)=[S]2)[P](CCCOC)(CCCOC)CC1 [[^99m−Tc(N) (PNP5) (ISOET)^+]]"
observed_value = 2.91

[[record]]
compound = "CCOCCN1CC[P](CCCOC)(CCCOC)[99Tc+]2(#[N])([S]C(N(CCOCC)CCOCC)=[S]2)[P](CCCOC)(CCCOC)CC1 [[^99m−Tc(N) (PNP5) (DBODC)^+]]"
observed_value = 3.69


====

Experiment: Biodistribution of the 99mTc(N) heterocomplexes in rats (organ uptake, heart accumulation, heart/lung and heart/liver ratios)
Assay type: in vivo, female Sprague-Dawley rats
Conditions: 120 min post injection
Some compounds, each annotated with its measured Biodistribution in rats: Heart.
recorded.metric: Biodistribution in rats: Heart (% dose/g)

[[record]]
compound = "CCOCCN1CC[P](CCCOC)(CCCOC)[99Tc+]2(#[N])([S]C(N(CCOCC)CCOCC)=[S]2)[P](CCCOC)(CCCOC)CC1 [[^99mTc(N) (PNP5) (DBODC)]^+]"
recorded_metric = "Biodistribution in rats: Heart"
observed_value = 3.31

[[record]]
compound = "CCOCCN1CC[P](CCCOC)(CCCOC)[99Tc+]2(#[N])([S]C(N(CCOCC)C(C)C)=[S]2)[P](CCCOC)(CCCOC)CC1 [[^99mTc(N) (PNP5) (ISOET)]^+]"
recorded_metric = "Biodistribution in rats: Heart"
observed_value = 2.44


====

Experiment: Biodistribution of the 99mTc(N) heterocomplexes in rats (organ uptake, heart accumulation, heart/lung and heart/liver ratios)
Type: in vivo, female Sprague-Dawley rats
Conditions: 10 min post injection
Method: The biodistribution was measured by using female Sprague-Dawley rats (SD rats) weighing 200 g to 250 g. Each of the ^99mTc(N) heterocomplexes purified in the manner described above was diluted with phosphate buffer (0.1 M, pH=7.4) to obtain a final solution having an ethanol content of 10%. […] The blood was withdrawn from the heart through a syringe and counted. […] The organs were excised from the rats, washed with physiological saline, weighed, and counted in a NaI well counter. […]
recorded.metric: Biodistribution in rats: Muscle (% dose/g)

[[record]]
compound = "CCOCCN1CC[P](CCCOC)(CCCOC)[99Tc+]2(#[N])([S]C(N(CCOCC)C(C)C)=[S]2)[P](CCCOC)(CCCOC)CC1 [[^99mTc(N) (PNP5) (ISOET)]^+]"
recorded_metric = "Biodistribution in rats: Muscle"
observed_value = 0.22

[[record]]
compound = "CCOCCN1CC[P](CCCOC)(CCCOC)[99Tc+]2(#[N])([S]C(N(CCOCC)CCOCC)=[S]2)[P](CCCOC)(CCCOC)CC1 [[^99mTc(N) (PNP5) (DBODC)]^+]"
recorded_metric = "Biodistribution in rats: Muscle"
observed_value = 0.21


====

Experiment: Biodistribution of the 99mTc(N) heterocomplexes in rats (organ uptake, heart accumulation, heart/lung and heart/liver ratios)
Format: in vivo, female Sprague-Dawley rats
Settings: 30 min post injection
Experimental: The biodistribution was measured by using female Sprague-Dawley rats (SD rats) weighing 200 g to 250 g. Each of the ^99mTc(N) heterocomplexes purified in the manner described above was diluted with phosphate buffer (0.1 M, pH=7.4) to obtain a final solution having an ethanol content of 10%. […] The blood was withdrawn from the heart through a syringe and counted. […] The organs were excised from the rats, washed with physiological saline, weighed, and counted in a NaI well counter. […]
recorded.metric: Biodistribution in rats: Lungs

[[record]]
compound = "COCCC[P]1(CCCOC)CCN(CCOC)CC[P](CCCOC)(CCCOC)[99Tc+]12(#[N])[S]C(N(CCOC)CCOC)=[S]2 [[^99mTc(N) (PNP3) (DPODC)]^+]"
observed_value = "0.41 ± 0.04 % ID/g"

[[record]]
compound = "CCOCCN1CC[P](CCCOC)(CCCOC)[99Tc+]2(#[N])([S]C(N(CCOCC)C(C)C)=[S]2)[P](CCCOC)(CCCOC)CC1 [[^99mTc(N) (PNP5) (ISOET)]^+]"
observed_value = "0.45 % dose/g"

[[record]]
compound = "CCOCCN(CCOCC)C1=[S][99Tc+]2(#[N])([S]1)[P](CCCOC)(CCCOC)CCN(CCOC)CC[P]2(CCCOC)CCCOC [[^99mTc(N) (PNP3) (DBODC)]^+]"
observed_value = "0.69 ± 0.12 % ID/g"

[[record]]
compound = "CCOCCN1CC[P](CCCOC)(CCCOC)[99Tc+]2(#[N])([S]C(N(CCOCC)CCOCC)=[S]2)[P](CCCOC)(CCCOC)CC1 [[^99mTc(N) (PNP5) (DBODC)]^+]"
observed_value = "0.64 % dose/g"

